System: N. gonorrhoeae 612501
assay_metric: MIC (µg/mL)
Supply the numeric figure in µg/mL, leaving out any unit text.

Worked cases, answers included:
CC1(C)CCCN(c2ccc3c(c2)Sc2cc(C(F)(F)F)cc(NC4CCN(CCN)CC4)c2N3)C1.Cl.Cl
1
CC1CC(C)CN(c2ccc3c(c2)Sc2cc(C(F)(F)F)cc(NC4CCN(CCN)CC4)c2N3)C1.Cl.Cl.Cl (stereo not drawn)
1
NCCCN1c2ccc(-c3cc4ccccc4[nH]3)cc2Sc2cc(C(F)(F)F)ccc21
2
NCCN1CCC(Nc2cc(C(F)(F)F)cc3c2Nc2ccccc2S3)CC1
2
NC1CCCC(CNc2cc(C(F)(F)F)cc3c2Nc2ccccc2S3)C1 (stereo not drawn)
2

Give MIC for this entry on N. gonorrhoeae 612501: CC1CCCN(c2ccc3c(c2)Sc2cc(C(F)(F)F)cc(NC4CCN(CCN)CC4)c2N3)C1.Cl.Cl (stereo not drawn)
1

---

Tested on: Escherichia coli (ATCC25922)
experiment_description: MIC, broth microdilution (CLSI), Escherichia coli ATCC25922
condition_label: ATCC25922, read-out: E. coli MIC, Table 15, NI = No inhibition
assay_metric: MIC (µg/mL)
Supply the numeric figure in µg/mL, leaving out any unit text.

Worked cases, answers included:
Cl.NCCNCCCNc1cc(C(F)(F)F)cc2c1Nc1ccccc1S2
32
NCCN1CCC(Nc2cc(C(F)(F)F)cc3c2Nc2ccc(CN)cc2S3)CC1.O=C(O)C(F)(F)F.O=C(O)C(F)(F)F
43
NCCC1CCC(CNc2cc(C(F)(F)F)cc3c2Nc2ccccc2S3)CC1 (centres unmarked)
12

Please report MIC for the following compound: CCN(C)c1ccc2c(c1)Sc1cc(C(F)(F)F)cc(NC3CCN(CCN)CC3)c1N2.Cl.Cl
8

---

Test system: Staphylococcus aureus subsp. aureus (ATCC29213)
experiment_description: MIC, broth microdilution (CLSI), Staphylococcus aureus subsp. aureus ATCC29213
Assay type: cell-based
condition_label: ATCC29213, Table 16, read-out: MIC S. aureus ATCC 29213
assay_metric: MIC (µg/mL)
Supply the numeric figure in µg/mL, leaving out any unit text.

Worked cases, answers included:
Cl.Cl.NCCNCCC(=O)Nc1cc(C(F)(F)F)cc2c1Nc1ccc(N3CCCC3)cc1S2
8
CC(C)NCCCN1c2ccccc2Sc2cc(-c3cc4ccccc4[nH]3)ccc21
2

Continue with the compound presented below.
Please report MIC for the following compound: CC1CCN(c2ccc3c(c2)Sc2cc(C(F)(F)F)cc(NC4CCN(CCN)CC4)c2N3)CC1.Cl.Cl
2

---

System: Escherichia coli (ATCC25922)
experiment_description: MIC, broth microdilution (CLSI), Escherichia coli ATCC25922
condition_label: ATCC25922, read-out: E. coli MIC, Table 15, NI = No inhibition
As shown below, each of these molecules has a reported MIC value.

Worked cases, answers included:
NC1CC(C(=O)Nc2cc(C(F)(F)F)cc3c2Nc2ccccc2S3)CCN1 (stereo not drawn) [compound 139]
> 100 µg/mL
CN(C)CCCN1c2ccccc2Sc2cc(C(F)(F)F)cc(NC(N)=S)c21 [compound 87]
> 100 µg/mL

Please report MIC for the following molecule: NC[C@H]1CC[C@H](C(=O)Nc2cc(C(F)(F)F)cc3c2Nc2ccccc2S3)CC1 [compound 120]
> 100 µg/mL

---

Tested on: E. coli RNase P RNA, M1 RNA
experiment_description: Inhibition of bacterial RNase P activity, IC50 determination (cleavage of pATSerUG by M1 RNA)
Type: biochemical
condition_label: NI = No inhibition
pIC50: −log10 of the molar value.
assay_metric: pIC50

Worked cases, answers included:
CNCCN1CCC(Nc2cc(CN)cc3c2Nc2ccccc2S3)CC1.O=C(O)C(F)(F)F [compound 224, trifluoroacetate salt]
4.17
CC1CCN(c2ccc3c(c2)Sc2cc(C(F)(F)F)cc(NC4CCN(CCN)CC4)c2N3)C1C.Cl (stereo not drawn) [compound 336, hydrochloride]
4.72

a = N[C@@H]1CCC[C@@H](CNc2cc(C(F)(F)F)cc3c2Nc2ccccc2S3)C1
b = CN(C)CCCN1c2ccccc2Sc2cc(-c3nc4ccccc4[nH]3)ccc21
I'd appreciate it if you could identify which of a and b has the greater pIC50. Indicate which entry you chose by stating its label.
a

---

Test system: E. coli RNase P RNA, M1 RNA
experiment_description: Inhibition of bacterial RNase P activity, IC50 determination (cleavage of pATSerUG by M1 RNA)
Assay type: biochemical
condition_label: NI = No inhibition
pIC50: −log10 of the molar value.
assay_metric: pIC50

Nc1cc(C(F)(F)F)cc2c1N(CCCN1CCNCC1)c1ccccc1S2
< 4.00
COc1cc(-c2ccc3c(c2)Sc2ccccc2N3CCCN(C)C)ccn1
< 4.00

Continue with the molecule presented below.
Please report pIC50 for the following molecule: CN(C)CCCN1c2ccccc2Sc2cc(-c3cccc4cn[nH]c34)ccc21
< 4.00

---

Tested on: Escherichia coli (ATCC25922)
experiment_description: MIC, broth microdilution (CLSI), Escherichia coli ATCC25922
condition_label: ATCC25922, read-out: E. coli MIC, Table 15, NI = No inhibition
As shown below, each of these molecules has a reported MIC value.

CN(C)CCCN1c2ccccc2Sc2cc(C3CC3)ccc21 [compound 116]
> 100 µg/mL
O=C(CC1(O)CCC(F)(F)CC1)Nc1cc(C(F)(F)F)cc2c1Nc1ccccc1S2 [compound 115]
> 100 µg/mL

Continue with the molecule presented below.
Give MIC for this entry on Escherichia coli (ATCC25922): NNC(=O)c1cc(NC2CCNCC2)c2c(c1)Sc1ccccc1N2.O=C(O)C(F)(F)F [compound 210]
> 100 µg/mL

---

Tested on: E. coli RNase P RNA, M1 RNA
experiment_description: Inhibition of bacterial RNase P activity, IC50 determination (cleavage of pATSerUG by M1 RNA)
Format: biochemical
condition_label: NI = No inhibition
As shown below, each of these molecules has a reported IC50 value.

Worked cases, answers included:
NC1CCCC(CC(=O)Nc2cc(C(F)(F)F)cc3c2Nc2ccccc2S3)C1 (stereo not drawn)
> 100 µM
CN(C)CCCN1c2ccccc2Sc2cc(C(F)(F)F)cc(NC(N)=S)c21
> 100 µM
CN(C)CCCN1c2ccc(Cl)cc2Sc2cccnc21
> 100 µM
O=C(Nc1cc(C(F)(F)F)cc2c1Nc1ccccc1S2)C1CCCC(O)C1 (stereo not drawn)
> 100 µM
O=C(/C=C/c1ccc(F)cc1)Nc1cc(C(F)(F)F)cc2c1Nc1ccccc1S2
> 100 µM

Please report IC50 for the following molecule: CN(C)CCCN1c2ccccc2Sc2cc(-c3ccc4[nH]cnc4c3)ccc21
> 100 µM

---

Test system: E. coli RNase P RNA, M1 RNA
experiment_description: Inhibition of bacterial RNase P activity, IC50 determination (cleavage of pATSerUG by M1 RNA)
Type: biochemical
condition_label: NI = No inhibition
assay_metric: IC50 (µM)

Worked cases, answers included:
NC1CC(C(=O)Nc2cc(C(F)(F)F)cc3c2Nc2ccccc2S3)C1 (centres unmarked) [compound 175]
80
CC1CCCN(c2ccc3c(c2)Sc2cc(C(F)(F)F)cc(NC4CCN(CCN)CC4)c2N3)C1.Cl.Cl (centres unmarked) [compound 301, hydrochloride]
27
CCOC(=O)c1ccc2c(c1)Sc1cc(-c3cc4ccccc4[nH]3)ccc1N2CCCN [compound 258]
24
CC(Nc1cc(C(F)(F)F)cc2c1Nc1ccccc1S2)C1CCCC(N)C1 (centres unmarked) [compound 190]
82

P = NC1CCCC(C(=O)Nc2cc(Cl)cc3c2Nc2ccccc2S3)C1 (centres unmarked) [compound 161]
Q = NCC1CCCC(C(=O)Nc2cc(C(F)(F)F)cc3c2Nc2ccccc2S3)C1 (centres unmarked) [compound 149]
Which value of IC50 is smaller, the one for P or the one for Q ? Indicate which entry you chose by stating its label.
Q

---

As shown below, each of these compounds has a reported MIC value.
System: Escherichia coli (ATCC25922)
experiment_description: MIC, broth microdilution (CLSI), Escherichia coli ATCC25922
condition_label: ATCC25922, read-out: E. coli MIC, Table 15, NI = No inhibition
Supply the numeric figure in µg/mL, leaving out any unit text.

Please report MIC for the following compound: NC1CCCC(CNc2cc(C(F)(F)F)cc3c2Nc2ccccc2S3)C1 (stereo not shown)
13

Please report MIC for the following compound: Cl.NC1CCCC(CNc2cc(C(F)(F)F)cc3c2Nc2ccc(N4CCCC4)cc2S3)C1 (stereo not shown)
16

Please report MIC for the following compound: COC1CCCN(c2ccc3c(c2)Sc2cc(C(F)(F)F)cc(NC4CCN(CCN)CC4)c2N3)C1.Cl (stereo not shown)
16

Please report MIC for the following compound: NC1CCCC(Nc2cc(C(F)(F)F)cc3c2Nc2ccccc2S3)C1 (stereo not shown)
12

Please report MIC for the following compound: Cl.NCCN1CCC(Nc2cc(C(F)(F)F)cc3c2Nc2ccc(N4CC5CCC4C5)cc2S3)CC1 (stereo not shown)
4

Please report MIC for the following compound: CC1CC(C)N1c1ccc2c(c1)Sc1cc(C(F)(F)F)cc(NC3CCN(CCN)CC3)c1N2.Cl (stereo not shown)
4
